Target: Integrin alpha-IIb/beta-3 (Homo sapiens, UniProt P08514+P05106)
Sequence (P05106 27-788 limits assumed): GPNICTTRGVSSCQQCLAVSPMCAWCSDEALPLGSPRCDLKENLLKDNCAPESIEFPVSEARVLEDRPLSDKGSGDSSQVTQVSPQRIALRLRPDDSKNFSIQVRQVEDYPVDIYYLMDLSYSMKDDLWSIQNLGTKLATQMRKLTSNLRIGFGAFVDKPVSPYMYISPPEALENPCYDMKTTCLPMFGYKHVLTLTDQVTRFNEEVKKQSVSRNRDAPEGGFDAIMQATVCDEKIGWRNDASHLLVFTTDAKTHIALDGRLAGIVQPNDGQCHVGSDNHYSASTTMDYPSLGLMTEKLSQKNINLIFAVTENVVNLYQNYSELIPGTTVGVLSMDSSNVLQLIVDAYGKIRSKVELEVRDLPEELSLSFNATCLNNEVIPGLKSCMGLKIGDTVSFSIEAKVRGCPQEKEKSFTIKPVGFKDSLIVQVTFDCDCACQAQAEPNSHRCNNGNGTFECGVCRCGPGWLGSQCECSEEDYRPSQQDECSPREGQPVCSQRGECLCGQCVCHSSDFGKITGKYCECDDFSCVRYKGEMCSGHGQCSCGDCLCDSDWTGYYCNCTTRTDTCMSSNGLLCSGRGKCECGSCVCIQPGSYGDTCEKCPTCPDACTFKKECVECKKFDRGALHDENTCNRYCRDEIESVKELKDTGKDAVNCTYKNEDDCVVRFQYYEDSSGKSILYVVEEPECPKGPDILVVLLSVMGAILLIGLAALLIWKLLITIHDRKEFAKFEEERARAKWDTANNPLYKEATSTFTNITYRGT
Sequence (P08514 32-887 limits assumed): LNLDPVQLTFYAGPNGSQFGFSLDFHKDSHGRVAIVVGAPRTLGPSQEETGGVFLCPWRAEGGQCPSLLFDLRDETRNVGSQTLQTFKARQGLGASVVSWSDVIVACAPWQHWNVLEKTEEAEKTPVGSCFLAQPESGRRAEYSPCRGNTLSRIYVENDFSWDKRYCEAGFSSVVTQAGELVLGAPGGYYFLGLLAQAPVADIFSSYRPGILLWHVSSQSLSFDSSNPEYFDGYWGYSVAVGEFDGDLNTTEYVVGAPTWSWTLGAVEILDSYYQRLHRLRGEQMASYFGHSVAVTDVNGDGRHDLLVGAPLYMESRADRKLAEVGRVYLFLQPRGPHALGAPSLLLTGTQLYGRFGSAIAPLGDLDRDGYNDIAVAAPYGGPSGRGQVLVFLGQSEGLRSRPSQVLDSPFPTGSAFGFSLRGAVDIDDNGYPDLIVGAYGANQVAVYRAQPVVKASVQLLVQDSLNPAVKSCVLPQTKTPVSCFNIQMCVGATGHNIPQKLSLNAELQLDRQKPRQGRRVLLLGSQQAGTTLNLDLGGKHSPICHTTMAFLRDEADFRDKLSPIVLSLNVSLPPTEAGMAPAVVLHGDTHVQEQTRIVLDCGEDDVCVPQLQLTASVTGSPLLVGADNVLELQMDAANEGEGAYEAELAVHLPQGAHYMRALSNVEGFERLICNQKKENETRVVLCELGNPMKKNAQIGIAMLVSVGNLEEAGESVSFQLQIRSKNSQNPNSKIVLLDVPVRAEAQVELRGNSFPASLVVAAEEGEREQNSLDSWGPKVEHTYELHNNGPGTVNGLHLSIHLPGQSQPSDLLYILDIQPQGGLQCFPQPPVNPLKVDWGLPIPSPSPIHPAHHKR
Sequence (P08514 891-1039 limits assumed): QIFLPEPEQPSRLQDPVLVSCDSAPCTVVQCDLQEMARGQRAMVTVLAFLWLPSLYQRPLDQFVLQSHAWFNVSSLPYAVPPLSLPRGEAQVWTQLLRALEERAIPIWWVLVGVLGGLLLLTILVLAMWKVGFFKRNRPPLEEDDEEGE
Assay: Inhibition of alphaIIb-beta3 integrin mediated platelet aggregation
Measure: pIC50
# log scale: pIC50 equals minus log10 of the concentration in mol/L

Kindly note the recorded pIC50 for "COc1ccc([C@H](CC(=O)O)N2CCN(CCCc3ccc4c(n3)NCCC4)C2=O)cn1" , which is 4.46
